# test-summary: yeast display, Sf9 membrane polyspecificity reagent, FACS + sequencing; frameworks hold sequencing errors
measured-parameter: polyreactivity (PSR sort gate)

{"sequence-code": "QVQLVESGGGLVQAGGSLRLSCAASGRTFGYYAMGWYRQAPGKERELVAAISYSSTITYYAGSVKGRFTISRDNAKNTVYLQMNSLKPEDTAVYYCAAYSTRGVEYDYWGQGTQVTVSS", "result": "high polyreactivity"}
{"sequence-code": "QVQLVESGGGLVQAGGSLRLSCAASGRTFNWYAMGWYRQAPGKERELVAAIRVNGGITYYADSVKGRFTISRDNAMNTVYLQMNSLKPEDTAVYYCAVYSRQGLGYWGQGTQVTVSS", "result": "high polyreactivity"}
{"sequence-code": "QVQLVESGGGLDQAGGSLRLSCAASGSIFYYYVMGWYRQAPGKERELVAAITNSDRTYYADSVKGRFTISRDNAKNTVYLQMNSLKLEDTAVYYCNADWFDQYYRDGLRGRYGYWRQGTQVTVSS", "result": "low polyreactivity"}
{"sequence-code": "QVQIVESGGGLLQAGGSLRLSCAASGSTFERYAMGWYRQAPWKERELVAAIDSSGGTTYYADSVKGRFTISRDNAKNTDYLQMNSLKPEDTAVYYCAADPGYYSVAYDYWGQGTQVTVSA", "result": "low polyreactivity"}
{"sequence-code": "QVQLVESGGGLVQAGGSLRLSCAASGSTLFINAMGWYRQAPGKERELVAAITSGTSTNYADSVKGRFTISRDNAKNTVYLQMNSLKPEDTAVYYCAVDYWYVPYYWGQGTQVTVSS", "result": "low polyreactivity"}
{"sequence-code": "QVQLVESGGGLVQAGGSLRLSCAASGGTFFLYAMGWYRQAPGTERELVADISSGDSTNYADSVKGRFTISRDNAKNTVYLQMNSLKPEDTAVYYCAADGKLEYVNGYNLYYWGQGTQVTVSS", "result": "low polyreactivity"}
{"sequence-code": "QVQLVESGGGLVQAGGSLRLSCAASGRPFISYAMGWYRQAPGKERELVAAISSSGGSTYYADSVKGRFTMSRDTAKNTVYLQMNSLKPEDTAVYYCNAAKVRRDPAWRLLDYWGQGTQVTVSS", "result": "low polyreactivity"}
{"sequence-code": "QVQLVESGARLVQAGGSLRLSCAASGLIFYGNAMGWYRQAPGKERELVAAISRRGGRTYYADSVKGRFTISRDNAENTVYLQKNSLKPEDTAVYYCAAQYSYPYYKVTLYYWGQGTQVTVSS", "result": "high polyreactivity"}
{"sequence-code": "QVQLVESVGGLVQAGGSLRLSCAASGRTFMYNAMGWYRQAPGKERELVAAISWSGGSTYYADSVKGRFTISRDNAKNTVYFLMNSLKPEDTAVYYCAATGRRSGFYFWGQGTQVTVSS", "result": "high polyreactivity"}
{"sequence-code": "QVQLVESGGGLVQAGGSLRLSSAASGFTLSRYAMGWYRQAPGKERELVASITSGGSTNYADSVKGRFTISRDNAKNTVYLQMNSLKPEDTAVYYCAARYPYRSYKLSHSYARPYGYWGQGTQVTVSS", "result": "high polyreactivity"}
{"sequence-code": "QVQLVESGGGLVQAGGSLRLSCAASGRTFWANTMGWYRQAPGKEREFVAAISGRDVSTYYADSVKGRFTISRDNAMNTVYLQMNSLKPEDTAVYYCAAGNLYYAEYDYWGQGTQVTVSS", "result": "low polyreactivity"}
{"sequence-code": "QVQLVESGGGLVQAGGSLRLSCAASGSTIYLNAMGWYRQAPGKERELVAAIDYRGGSTYYADSVKGRFTISRDNAKNTVYLQMNSLKPEDTAVYYCNADYVYVHYQPGYYWGQGTQVTVSS", "result": "low polyreactivity"}
{"sequence-code": "QVQLVESGGGLVQAGGSLRLSCAASGRTFHYNAMGWYRQAPGKERELVAAITRSGGSTYYADSLKGRFTISRVNAKNTVYLQMNSLKPEDTAVYYCAAGWRSVSVRYYGPSDYWGQGTQVTVSS", "result": "low polyreactivity"}
{"sequence-code": "QVQLVESGGGLVQAGGSLRLSCAASGFIFSGYAMGWYRQAPGKERELVAAISGGGSTYYADSVKGRFTSSRDNAKNTVYLQMNNLKPEETADYYCAARVYWSVRYYYWGQGTQVTVSS", "result": "high polyreactivity"}
{"sequence-code": "QVQLVESGGGLVQAGGSLRLSCAASGFTFYYNAMGCYRQAPGKERELVASISSNGTSTYYADSVKGRFTISRDNAKNTVYLQMNSLKPEDTAVYYCNVDIFDPRTYDYWGQGTQVTVSS", "result": "low polyreactivity"}
{"sequence-code": "QVQLVESGGGLVQAGGSLRLSCAASGRIFRGYAMGWYRQAPGKERELVAAISSGVSTNYADSVKGRFTISRDNAKNTVYLQKNSLKPVDTAVYYCAAYFYSPYGTAGKYRRRYNYWGQGTQVTVSS", "result": "high polyreactivity"}
{"sequence-code": "QVQLVESGGGLVQAGGSLRLTCAASGRIFDYNDMGWYRQAPGKERELVAAITSDGSTNYADSVKGRFTISRDNAKNTVFLQMNSLKPEDPAVYYCAADTGETFDSIYDYWGQGTQVTVSS", "result": "low polyreactivity"}
{"sequence-code": "QVQLVESGGGLVQAGGSLRLSCAASGLIFFNYYAMGWYRQAPGKERELVAAIRYGGGSTYYADSVKGRFTISRDNAKNTVYLLMNSLKPEDTAVDYCAARFKGYYRYGYWGQGTQVTVSS", "result": "high polyreactivity"}
{"sequence-code": "QVQLVESGGGLVQAGGSLRLSCAASGNIFSDNAMGWYRQAPGKERELVAAITASTSDTYYADSVKGRFTISRDNAKNSVYLQMNSLKPEDTAVYYCAADSRGFQLFDYWGQGTQVTVSS", "result": "low polyreactivity"}
{"sequence-code": "QVQLVESGGGLVQAGGSLRLICAASGLIFSYYAMGWYRQAPGKERELVAAISRGGSTNYADSVKGRFTISRDNAKNTVYLQMNSLKPEDTAVYYCAARFVVRRDYGYWGQGTQVTVSS", "result": "high polyreactivity"}
{"sequence-code": "QFQLVESGGGLVQAGGSLRLSCAASGRIFFRNAMGWYIQAPGKETELVADNTNGGSTNYADSEKGRFTISRDNAKYTVYLQMNSLNPEDTAVYYCAADTLGVYDGDYWGQGTQVTVSS", "result": "low polyreactivity"}

###

# test-summary: yeast display, Sf9 membrane polyspecificity reagent, FACS + sequencing; frameworks hold sequencing errors

{"sequence-code": "QVQLVESGGGLVQAGGSLRLSCAASGFNFSYYVMGWSRQAPGKERELVAAITKSGGSTYYADSVKGRFTISRDNAKNTVYLQMNSLKPEDTAVYYCAAVRGYRGYDYWGQGTQVTVSS", "polyreactivity (PSR sort gate)": "high polyreactivity"}
{"sequence-code": "QVQLVESGGGLVQAGGSLRLSCAASGRTFYANAMGWYRQAPGKERELVAAISWGGGSTYYADSVKGRFTISRDNAKNTVYLQMNSLKPEDTAVYYCNADLGRATFYQRVFIERGGYWGQGTQVTVSS", "polyreactivity (PSR sort gate)": "low polyreactivity"}
{"sequence-code": "QVQLVESGGGLVQAGGSLRLSCAASGYIFGWNAMGWYRQAPGKERELVAAISSSGGNTYYADSVKGRFTISRDNAKNTVYLQMNSLKPEDTAVYYCARSYPYRYDYWGQGTQVTVSS", "polyreactivity (PSR sort gate)": "low polyreactivity"}
{"sequence-code": "QVQLVESGGGLVQAGGSLRLSCAASGFIFPDYAMGWYRPAPGKERELVAAINRRGSRTYYADSVKGRFTISRDNAKNTVYLQMNSLKPEDTAVYYCNRDVGKVYAVIYDYWGQGTQVTVSS", "polyreactivity (PSR sort gate)": "high polyreactivity"}
{"sequence-code": "QVQLVESGGGLVQAGGSLRLSCAASGRTFQYNAMGWNRQAPGKERELVAAISWSDGITYYADSVKGRFTISRDNAKNTVFLQMNSLKPEDTAVYYCAAEGYGLSYYFPYDYWGQGTQVTVSS", "polyreactivity (PSR sort gate)": "high polyreactivity"}

###

# test-summary: yeast display, Sf9 membrane polyspecificity reagent, FACS + sequencing; frameworks hold sequencing errors

{"sequence-code": "QVQLEESGGGLVQAGGSLRLSCAASGITIWGYTMGWYRQAPGKERELVAAITSTGSTYYADSVKGRFTISRDNAKNTVYLQMNSLKPEDTSVYYCAATRGSSEYYYWGQGTQVTVSS", "polyreactivity (PSR sort gate)": "low polyreactivity"}
{"sequence-code": "QVQLVESGGGLVQAGGSLRLSCAASGSTFPFYAMGWYRQAPGKERELVAAITSGGSTYADSVKGRFTISRDNAKNTVYLQMNSLKPEDTAVYYCAASWPRWWRFGYWGQGTQVTVSS", "polyreactivity (PSR sort gate)": "low polyreactivity"}
{"sequence-code": "QVQLVESGGGFVQAGGSLRLSCAASGRIFRIYAMGWYRQAPGKERELVAAITYRGGSTNYADSVKGRFTISRDNAKNTVYVQINSLKPEDTAVYDCAARSVYYGYTGYSYWGPGTQVTVSS", "polyreactivity (PSR sort gate)": "high polyreactivity"}
{"sequence-code": "QVQLVESVGGLVQAGGSLPLSCAASGLTFPSYAMGWYRQAPGKERELVAAISASGSSTYYADSVKGRFTISRDNAKNTVYLQMNSLKPEDTAVYYCNARKPATVSRYGYWGQGTQVTVSS", "polyreactivity (PSR sort gate)": "high polyreactivity"}
{"sequence-code": "QVQLVESGGGLVQAGGSLRLSCAASGSTFYGNAMGWYRQAPGKERELVAAITWGDASTYYADSVKGRFTISRDNAKNTDYLQMNSLKPEDTAVYYCAVDESYGSSSDMDYWGQGTQVTVSS", "polyreactivity (PSR sort gate)": "low polyreactivity"}
